Tested on: Trypanosoma cruzi amastigotes (Tulahuen strain expressing Lac-Z) cultured in 3T3 fibroblast cells
test: microbe, parasite or virus in culture
Format: cell-based
stated conditions: Trypanosoma cruzi, TULAHUEN, Fibroblast, T. cruzi amastigotes in 3T3 fibroblast cells; read-out: T cruzi EC50
recorded metric: pEC50
Note: pEC50 values are expressed as the negative base-10 logarithm of concentration in M.

Recorded result, Cc1cncc(-c2cnc3nc(-c4cc(NC(=O)c5oc(C)nc5C)ccc4F)cn3c2)c1 , pEC50: 6.62

Recorded result, CC(C)OC(=O)Nc1ccc(F)c(-c2cn3cc(C(C)C)cnc3n2)c1 , pEC50: 6.94

Recorded result, Cc1nc(C)c(C(=O)Nc2ccc(F)c(-c3cn4cc(-c5ccc(NC(C)C)cc5)cnc4n3)c2)o1 , pEC50: 4.85

Recorded result, O=C(Nc1ccc(F)c(-c2cn3cc(OCCN4CCOCC4)cnc3n2)c1)N1CCCC1 , pEC50: 5.17

Recorded result, CC(C)OC(=O)Nc1ccc(F)c(-c2cn3cc(-c4cccnc4)cnc3n2)c1 , pEC50: 7.10

Recorded result, COC(=O)CN1CCC(c2cnc3nc(-c4cc(NC(=O)c5oc(C)nc5C)ccc4F)cn3c2)CC1 , pEC50: 6.42

Recorded result, O=C(Nc1ccc(Cl)c(-c2cn3cc(N4CCCC4)cnc3n2)c1)N1CCCC1 , pEC50: 7.26

The origin of these recorded values is patent US20160045505A1.
